Assign AURKA Degradation 24h @100nM to each entry below.
Target: AURKA (Homo sapiens, UniProt O14965)
Sequence (O14965 whole entry): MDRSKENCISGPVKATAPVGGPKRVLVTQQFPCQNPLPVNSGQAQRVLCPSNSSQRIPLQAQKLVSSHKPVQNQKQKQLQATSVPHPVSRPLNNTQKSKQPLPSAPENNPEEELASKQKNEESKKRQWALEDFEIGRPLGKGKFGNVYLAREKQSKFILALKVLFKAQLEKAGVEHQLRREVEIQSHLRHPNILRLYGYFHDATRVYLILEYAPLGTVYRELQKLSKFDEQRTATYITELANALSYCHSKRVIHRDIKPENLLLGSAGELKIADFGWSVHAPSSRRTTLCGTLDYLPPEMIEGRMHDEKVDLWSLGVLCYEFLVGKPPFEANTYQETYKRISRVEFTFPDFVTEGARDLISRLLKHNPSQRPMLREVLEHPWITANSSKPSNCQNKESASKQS
Experiment: AURKA degradation, Simple Western;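 note: measured in NGP neuroblastoma cells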
Format: cell-based
Design: Representative Western blot showing levels of endogenous proteins MDR1, MYCN, AURKA, and CRBN in untreated cell lines; endogenous in cells; host or cells: NGP, IMR-32, SJNB-8, SK-N-BE(2)-C, SK-N-SH, SK-N-AS, SJNB-1, RPE, HEK293T
Conditions: 24h, 100nM
Method: Cells were seeded in T-25 flasks at different densities ranging from 1 to 2 million cells per flask and allowed to adhere for 1–2 days. In experiments involving compound treatment, this was done by medium replacement containing the compound(s) of interest in their corresponding concentrations. […] The supernatant was collected and concentrations of the obtained protein lysates were measured using the Pierce BCA Protein Assay Kit (Thermo Fisher Scientific, #23227). […]

Data request: Recorded AURKA Degradation 24h @100nM for `Cc1cc(Nc2ccc(F)c(CC3(C(=O)N4CCC(CN5CCN(c6ccc(N7CCC(=O)NC7=O)cn6)CC5)CC4)CCN(Cc4cccc(Cl)c4F)CC3)n2)n[nH]1` , please?
Data returned: 88

Data request: Recorded AURKA Degradation 24h @100nM for `O=C1CCN(c2ccc(N3CCN(CC4CN(C(=O)[C@]5(Cc6cccc(Nc7nccs7)n6)CC[C@@H](Oc6cccc(Cl)c6F)CC5)C4)CC3)nc2)C(=O)N1` , please?
Data returned: 88

Data request: Recorded AURKA Degradation 24h @100nM for `O=C1CCN(c2ccc(N3CCN(CC4CCN(C(=O)[C@]5(Cc6cccc(Nc7nccs7)n6)CC[C@@H](Oc6cccc(Cl)c6F)CC5)CC4)CC3)nc2)C(=O)N1` , please?
Data returned: 88
